# Test system: K-562 leukemia
# assayMethodText: NCI-60 one-dose screen, 48 h (100 = growth as untreated, 0 = no growth, -100 = all killed)
# conditionContext: 10 µM unless noted
About 83,000 compounds went through this panel and 20% of them were active in at least one assay; those are over-represented in the sample as a whole.
In this section we review reported growth values for a set of molecules.
Entry rule: numbers only, all in %.

- molecule: "O=C(CSc1nc2sc3c(c2c(=O)n1-c1ccc(Cl)cc1)CCCC3)NNC(=O)c1ccc(Br)cc1"
  growth [%]: 55.5
- molecule: "Nc1ccc(-c2ccc3ncnc(N4CCc5cc(F)c(Cl)cc54)c3c2)cn1"
  growth [%]: 12.9
- molecule: "O=C(Nc1ccc(S(=O)(=O)N2CCCCC2)cc1)C(Cl)Cl"
  growth [%]: 111
- molecule: "Cc1ccc(NC(=O)N/N=C/c2c[nH]c3ccccc23)c(C)c1"
  growth [%]: 10.5
- molecule: "CC[C@]12C=CCN3CC[C@@]4(c5ccc(OC)cc5N(C)[C@H]4[C@@](O)(C(=O)OC)[C@@H]1OC(=O)CCCC[P+](c1ccc(F)cc1)(c1ccc(F)cc1)c1ccc(F)cc1)[C@@H]32"
  growth [%]: 17.1

[ask] Need growth of CN(C)CCCNC(=S)Nc1ccc(/C=C/c2ccc(Cl)cc2)cc1 , thanks.
[reply] 4.54

[ask] Param item: COc1ccc(-c2nc3ccc(-c4nnc(SCc5ccccc5)o4)cc3[nH]2)cc1OC
[reply] 56.8

[ask] Same lookup for COc1ccc(NC(=O)Cn2c(/C=C/c3cccc(Br)c3)nc3ccccc3c2=O)cc1 , please.
[reply] 86.3

[ask] Again, but for COc1ccc(NC(=O)Cn2c(/C=C/c3ccc([N+](=O)[O-])cc3)nc3ccccc3c2=O)cc1
[reply] 120

[ask] Now the molecule O=C1Nc2cc(-c3ccc(NS(=O)(=O)c4ccc(F)c(Cl)c4)cc3)ccc2/C1=C/c1ccc[nH]1
[reply] 17.3

[ask] Would you mind doing ClC(Cn1ncc2c(Nc3cccc(Br)c3)nc(SCCN3CCOCC3)nc21)c1ccc(Br)cc1 (centres undefined) as well?
[reply] -37.7

[ask] How about this molecule: CC1=C(C)C(=O)C(N2CCSCC2)=CC1=O
[reply] 107

[ask] Another molecule to look at: Nc1nnc(-c2cncc(Br)c2)c(-c2c[nH]c3ccc(Br)cc23)n1
[reply] 19.1

[ask] Input Cc1[nH]nc2ccc3nc(-c4cn[nH]c4C(F)(F)F)c4c(c3c12)CCCC4
[reply] 14.9

[ask] How about CC(C)CN1C(=O)/C(=C\C(=O)c2cc3ccccc3oc2=O)c2ccccc21 ?
[reply] 1.97

[ask] Another: O=C(Nc1ccc(Br)cc1)Nc1ccc(-c2ccc3c(c2)NC(=O)/C3=C\c2ccc[nH]2)cc1
[reply] 18.6

[ask] Here is the next molecule: CCN1CCN(Cc2ccc(C(=O)Nc3cccc(Nc4ccc5c(OC)cccc5n4)c3)cc2C(F)(F)F)CC1
[reply] 0.423

[ask] Next entry: O=C(c1ccc(O)cc1)C1[C@H](c2ccccc2Br)[C@@H](c2ccccc2)NC12C(=O)Nc1ccccc12 (some centres undefined)
[reply] 29.4

[ask] Next molecule: COc1ccc(C(=O)c2cc(C(C)=O)c3c(C)cc(C)cn23)cc1
[reply] 86.4

----------
Below, each of the compounds is paired with its reported growth value.
# Tested on: EKVX NSCLC
# assayMethodText: NCI-60 one-dose screen, 48 h (100 = growth as untreated, 0 = no growth, -100 = all killed)
# conditionContext: 10 µM unless noted
About 83,000 compounds went through this panel and 20% of them were active in at least one assay; those are over-represented in the sample as a whole.
Answer in %, number only, no unit symbol.

Examples with answers:
- compound: "O=C1Nc2ccccc2/C1=C\\c1ccc(OCC(=O)c2ccc(Br)cc2)cc1"
  units: "%"
  growth: 65.6
- compound: "COC(=O)c1ccc(-c2c(-c3ccccc3)c(F)c3oc(C(=O)OC)c(N)c3c2-c2ccccc2)cc1"
  units: "%"
  growth: 90.4
- compound: "Cc1cc(Cl)ccc1NC(=O)Nc1ccc(-c2ccc3c(c2)NC(=O)/C3=C\\c2ccc[nH]2)cc1"
  units: "%"
  growth: 67.5
- compound: "CN(C(=O)CN1C(=O)/C(=C/c2ccco2)SC1=S)C1CCS(=O)(=O)C1 (centres undefined)"
  units: "%"
  growth: 97.9
- compound: "COc1c2c(cc3c1C(CCc1ccccc1)N(C)CC3)OCO2 (centres undefined)"
  units: "%"
  growth: 16.1

[ask] Looking for the measured growth of C[C@H]1[C@@H](CC(=O)N[C@@H](Cc2coc3ccccc23)B(O)O)O[C@@H]2OC3(C)CC[C@H]4[C@H](C)CC[C@@H]1[C@@]24O3 , can you help?
[reply] 28.2

[ask] Same lookup for O=C(c1cc2cc(OCCCN3CCC3)ccc2[nH]1)N1C[C@@H](CCl)c2c1cc(OCc1ccccc1)c1ccccc21 , please.
[reply] -46

[ask] Let us now turn to Fc1ccc(F)c(CNc2nc(SCCN3CCOCC3)nc3c2cnn3CC(Cl)c2ccc(Br)cc2)c1 (centres undefined)
[reply] 45.1

[ask] Follow-up item: C=CC[n+]1cccc2c3ccccc3ccc21
[reply] 23.7

----------
# Tested on: UACC-62 melanoma
# assayMethodText: NCI-60 one-dose screen, 48 h (100 = growth as untreated, 0 = no growth, -100 = all killed)
# conditionContext: 10 µM unless noted
Compounds without any hit were thinned out: in the full panel of roughly 83,000, 20% have a hit.
quantity: growth (%)
Express the result in % but write the number alone.

Here's what some known entries look like.
- compound: "Cc1ccc2nc(COc3ccc(C(=O)NNC(=O)Nc4ccc(Cl)c(C(F)(F)F)c4)cc3)[nH]c2c1"
  measurementTarget: "UACC-62 melanoma"
  units: "%"
  growth: 40.1
- compound: "O=C(N/N=C/c1ccsc1)c1[nH]c2ccc(Br)cc2c1-c1ccccc1"
  measurementTarget: "UACC-62 melanoma"
  units: "%"
  growth: -91.6
- compound: "CC(=O)c1c2c(c3ccc4c5ccccc5ccc4n13)C(=O)c1ccccc1C2=O"
  measurementTarget: "UACC-62 melanoma"
  units: "%"
  growth: 87
- compound: "Nc1nnc(-c2cncc(Br)c2)c(-c2c[nH]c3ccc(Br)cc23)n1"
  measurementTarget: "UACC-62 melanoma"
  units: "%"
  growth: 55.2
- compound: "FC(F)(F)c1cc2c(Cl)ncnc2n1CCN1CCOCC1"
  measurementTarget: "UACC-62 melanoma"
  units: "%"
  growth: 64.7
- compound: "OCCn1cc(-c2nc3ccc4[nH]ncc4c3c3c2CCCC3)cn1"
  measurementTarget: "UACC-62 melanoma"
  units: "%"
  growth: 27.9

[ask] Which growth value is on record for COc1cc(-c2ccc3ncnc(N4CCc5ccc(Cl)cc54)c3c2)cnc1Cl ?
[reply] 10

[ask] And what about the compound COc1ccc(-c2cc(-c3cc(C(C)C)c(O)cc3C)nn2-c2ccc(S(N)(=O)=O)cc2)cc1 ?
[reply] 21.5

[ask] Next entry: COc1cc(CNC(=O)C[C@H](C)CCC=C(C)C)ccc1OCc1cn(-c2ccc(Cl)c(Cl)c2)nn1
[reply] 69.3

[ask] Field entry: O=C1Nc2cc(-c3ccc(NS(=O)(=O)c4ccc(C(F)(F)F)cc4)cc3)ccc2/C1=C/c1ccc[nH]1
[reply] 30.5

[ask] # iterate: Cc1ccc(C(=O)Nc2cccc(C(=O)NC(=S)Nc3ccc(S(N)(=O)=O)cc3)c2)cc1
[reply] 69.4

[ask] Ok, now Cc1ccc2c(c1)nc(-c1ccccc1)n2CC(=O)N=Nc1c(O)[nH]c2ccc(Cl)cc12
[reply] -63.5

----------
# Tested on: MDA-MB-231 breast
# assayMethodText: NCI-60 one-dose screen, 48 h (100 = growth as untreated, 0 = no growth, -100 = all killed)
# conditionContext: 10 µM unless noted
About 83,000 compounds went through this panel and 20% of them were active in at least one assay; those are over-represented in the sample as a whole.
quantity: growth (%)
The answer is to be given in %; state only the numeric part.

Worked examples follow.
- molecule: "Nc1cc(-c2c[nH]c3ccc(F)cc23)nc2cc(-c3c[nH]c4ccccc34)nn12"
  units: "%"
  experimentalValue: -65.5
- molecule: "Cc1cn(-c2cc(NC(=O)c3ccc(C)c(-n4cc(-c5cnc6cccnn56)nn4)c3)cc(C(F)(F)F)c2)cn1"
  units: "%"
  experimentalValue: 24.7
- molecule: "O=C(CSc1nc2ccccc2c(=O)[nH]1)Nc1ccccc1C(=O)O"
  units: "%"
  experimentalValue: 94.6
- molecule: "COc1ccc(-c2nnc3c(/C=C/c4ccc(Br)cc4)nc4ccccc4n23)cc1"
  units: "%"
  experimentalValue: 81.9

[ask] Please give the measured growth for this molecule: O=C(Nc1ccc(S(=O)(=O)N2CCCCC2)cc1)C(Cl)Cl
[reply] 109

[ask] // next record Cc1ccc(Cl)cc1NC(=O)N/C(N)=N/c1nc2ccccc2s1
[reply] -42.7
